Each recorded value in this set is attributed to the supplement of paper PMC6755084.

Items are presented alongside their recorded fraction ligated.
B1: minF1; the commonest letter at each place (parent)
chain: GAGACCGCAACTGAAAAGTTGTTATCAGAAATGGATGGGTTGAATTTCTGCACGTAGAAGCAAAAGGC

Variants of: B1
Assay: fraction ligated after 30 min (ligated reads / total reads); higher = more ligase activity
Conditions: with F1*subA RNA substrate (template-directed ligation), 42 °C
Lab note: record just the number, no unit beside it.

Worked examples, 6 variants total:
> print(dat)
   variant.designation  reported.value
1            A29C A43T          0.0813
2            G33T G34A           0.051
3            T25G G33C         0.00397
4            G37A A44C         0.00309
5            T23C A31C           0.328
6            G33T G34C         0.00646

Exercise: Answer with the recorded fraction ligated of A29C A30G only.
Key: 0.827

Exercise: Consider the variant A24T A44C . State its measured fraction ligated.
Key: 0.00276

Exercise: Using known records, supply fraction ligated for G34T T36A
Key: 0.00722

Exercise: Recall and state the measured fraction ligated for T25A A29T .
Key: 0.015

Exercise: Kindly indicate its recorded fraction ligated. Item: A24C T25A
Key: 0.0142

Exercise: State, in one line, measured fraction ligated of C26A A29C
Key: 0.0944
